# assayProtocol: gradient 5% acetonitrile 3 min, to 50% in 2 min, to 85% in 15 min, held 3 min, 100 µL/min
# measurementParameters: column: Zorbax Extend-C18 2.1 x 50 mm; eluents: water / acetonitrile, 0.1% formic acid
Assign labels as follows, please: yes (1) for RP-LC retention time below 700 s; no (0) for RP-LC retention time equal to or exceeding 700 s.

molecule	class
Cc1ccc(F)cc1NC(=O)Cn1nc(N(C)C)c2ccccc2c1=O	no (0)
Cc1ccc2nc(C(=O)NC(C)c3ccc(F)cc3)cn2c1 (stereo not drawn)	yes (1)
COc1ccccc1-n1ccnc(NC(=O)Nc2cccc(F)c2)c1=O	no (0)
COc1ccc(-c2cc3c(=O)n(CC(=O)N4CCN(c5ccccn5)CC4)nc(C)n3n2)cc1	yes (1)
CC1=C(C(=O)N(CC(=O)NCCc2ccccc2)c2ccc(Cl)cc2)SCCO1	no (0)
Cc1c(Cl)cccc1NC(=O)CN1C(=O)NC2(CCCCC2)C1=O	no (0)
CCOC(=O)c1c(C)c(CCC(=O)NC(C)c2ccccc2)n(C)c1C (stereo not drawn)	no (0)
Nc1ccc(Nc2ccccc2)c(S(=O)(=O)O)c1	yes (1)
CC1CCN(c2nc(-c3ccc(Br)cc3)nc3ccccc23)CC1	no (0)
CC(C)(NC(=O)c1cnccn1)c1nc2c(c(C(N)=O)n1)OCO2	yes (1)
COCCCNC(=O)C1c2ccccc2CCN1C(C)=O (stereo not drawn)	yes (1)
COc1ccc(-n2nc3c(N4CCCC(C(=O)NCc5cccs5)C4)nnc(C)c3c2C)cc1 (stereo not drawn)	no (0)
Cc1ccc(CNc2ccc(-c3nc(-c4ccc(F)cc4)no3)cn2)o1	no (0)

FYI, the data here is from the METLIN SMRT retention time set (Domingo-Almenara et al. 2019).
